Each recorded value in this set is attributed to patent US20050112126A1.

Target: T1, VEGF121 (human, UniProt P15692 27-147)
T1 construct: mature; Immobilized on the biosensor chip via primary amino groups; also called Purified VEGF121
T1 sequence (looked up): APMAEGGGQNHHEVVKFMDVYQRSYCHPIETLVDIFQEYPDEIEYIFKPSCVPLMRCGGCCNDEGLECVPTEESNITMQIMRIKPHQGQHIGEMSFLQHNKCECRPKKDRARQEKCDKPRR
Assay: BIAcore SPR, Fab over immobilized VEGF121
Assign labels as follows, please: Met for KD(A4.6.1)/KD(mut) as headed (values read as KD(mut)/KD(A4.6.1)) below 200 ratio; Not met for KD(A4.6.1)/KD(mut) as headed (values read as KD(mut)/KD(A4.6.1)) equal to or exceeding 200 ratio.

* hu2.2 (Fab, name in Kabat numbering, V domains shown, soluble Fab with human constant domains) VH: EVQLVESGGGLVQPGGSLRLSCAASGYTFTNYGMNWIRQAPGKGLEWVGWINTYTGEPTYAADFKRRFTISRDNSKNTVYLQMNSLRAEDTAVYYCAKYPHYYGSSHWYFDVWGQGTLVTVSS VL: DIQLTQSPSSLSASVGDRVTITCSASQDISNYLNWYQQKPGKAPKLLIYFTSSLHSGVPSRFSGSGSGTDYTLTISSLQPEDFATYYCQQYSTVPWTFGQGTKVEIK | Not met
* hu2.10 (Fab, V domains shown, Soluble Fab with human constant domains; also called consensus clone hu2.10) VH: EVQLVESGGGLVQPGGSLRLSCAASGYTFTNYGMNWIRQAPGKGLEWVGWINTYTGEPTYAADFKRRFTISLDTSASTVYLQMNSLRAEDTAVYYCAKYPHYYGSSHWYFDVWGQGTLVTVSS VL: DIQMTQSPSSLSASVGDRVTITCSASQDISNYLNWYQQKPGKAPKLLIYFTSSLHSGVPSRFSGSGSGTDYTLTISSLQPEDFATYYCQQYSTVPWTFGQGTKVEIK | Met
* hu2.7 (Fab, name in Kabat numbering, V domains shown, soluble Fab with human constant domains) VH: EVQLVESGGGLVQPGGSLRLSCAASGYTFTNYGMNWIRQAPGKGLEWVGWINTYTGEPTYAADFKRRFTISRDNSKNTVYLQMNSLRAEDTAVYYCAKYPHYYGSSHWYFDVWGQGTLVTVSS VL: DIQLTQSPSSLSASVGDRVTITCSASQDISNYLNWYQQKPGKAPKLLIYFTSSLHSGVPSRFSGSGSGTDFTLTISSLQPEDFATYYCQQYSTVPWTFGQGTKVEIK | Not met
* hu2.10V (Fab, V domains shown, Soluble Fab with human constant domains; also called hu2.10 with mutation VL Leu->Val) VH: EVQLVESGGGLVQPGGSLRLSCAASGYTFTNYGMNWIRQAPGKGLEWVGWINTYTGEPTYAADFKRRFTISLDTSASTVYLQMNSLRAEDTAVYYCAKYPHYYGSSHWYFDVWGQGTLVTVSS VL: DIQMTQSPSSLSASVGDRVTITCSASQDISNYLNWYQQKPGKAPKVLIYFTSSLHSGVPSRFSGSGSGTDYTLTISSLQPEDFATYYCQQYSTVPWTFGQGTKVEIK | Met
* hu2.6 (Fab, name in Kabat numbering, V domains shown, soluble Fab with human constant domains) VH: EVQLVESGGGLVQPGGSLRLSCAASGYTFTNYGMNWIRQAPGKGLEWVGWINTYTGEPTYAADFKRRTTISLDTSASTVYLQMNSLRAEDTAVYYCAKYPHYYGSSHWYFDVWGQGTLVTVSS VL: DIQLTQSPSSLSASVGDRVTITCSASQDISNYLNWYQQKPGKAPKLLIYFTSSLHSGVPSRFSGSGSGTDFTLTISSLQPEDFATYYCQQYSTVPWTFGQGTKVEIK | Met
* hu2.1 (Fab, name in Kabat numbering, V domains shown, soluble Fab with human constant domains) VH: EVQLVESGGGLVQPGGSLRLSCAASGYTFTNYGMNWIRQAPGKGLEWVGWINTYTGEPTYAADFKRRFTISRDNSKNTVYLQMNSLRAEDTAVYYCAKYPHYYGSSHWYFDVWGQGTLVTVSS VL: DIQMTQSPSSLSASVGDRVTITCSASQDISNYLNWYQQKPGKAPKLLIYFTSSLHSGVPSRFSGSGSGTDYTLTISSLQPEDFATYYCQQYSTVPWTFGQGTKVEIK | Met
